Biological target: Serine/threonine-protein kinase 16 (Homo sapiens)
Sequence (O75716 whole entry): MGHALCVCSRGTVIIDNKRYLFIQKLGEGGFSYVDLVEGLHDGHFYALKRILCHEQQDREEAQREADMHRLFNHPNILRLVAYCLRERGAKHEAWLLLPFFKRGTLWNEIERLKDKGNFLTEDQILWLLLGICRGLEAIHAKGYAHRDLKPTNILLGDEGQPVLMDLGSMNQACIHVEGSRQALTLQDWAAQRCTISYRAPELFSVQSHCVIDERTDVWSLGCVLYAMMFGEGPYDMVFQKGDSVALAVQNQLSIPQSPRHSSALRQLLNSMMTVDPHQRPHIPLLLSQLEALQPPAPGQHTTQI
Test: Competitive binding affinity to STK16 (unknown origin) at 10 uM in presence of ATP relative to control
Measure name: inhibition (%)

[
  {
    "Substance smiles": "O[C@H]1CC[C@H](Nc2nccc(-c3n[nH]c4ccccc34)n2)CC1",
    "inhibition / %": 100
  },
  {
    "Substance smiles": "N[C@H]1CC[C@H](Nc2nccc(-n3nnc4ccccc43)n2)CC1",
    "inhibition / %": 83
  },
  {
    "Substance smiles": "O[C@H]1CC[C@H](Nc2nccc(-n3ncc4ccccc43)n2)CC1",
    "inhibition / %": 81
  },
  {
    "Substance smiles": "O=C([C@H]1CC[C@H](Nc2nccc(-n3nnc4ccccc43)n2)CC1)N1CCOCC1",
    "inhibition / %": 93
  }
]

---

Target: Mitogen-activated protein kinase 11 (Homo sapiens)
Sequence (Q15759 whole entry): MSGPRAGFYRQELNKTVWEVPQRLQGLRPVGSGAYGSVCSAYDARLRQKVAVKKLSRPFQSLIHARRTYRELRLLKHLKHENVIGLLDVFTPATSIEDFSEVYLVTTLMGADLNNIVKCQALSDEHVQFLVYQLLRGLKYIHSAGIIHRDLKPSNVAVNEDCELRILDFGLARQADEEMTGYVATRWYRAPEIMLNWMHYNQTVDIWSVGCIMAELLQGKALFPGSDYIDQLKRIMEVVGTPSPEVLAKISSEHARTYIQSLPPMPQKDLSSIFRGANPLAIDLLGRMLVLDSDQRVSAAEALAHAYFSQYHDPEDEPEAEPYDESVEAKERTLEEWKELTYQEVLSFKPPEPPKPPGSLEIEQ
Assay: Competitive binding affinity to p38-beta (unknown origin) at 10 uM in presence of ATP relative to control
Measure name: inhibition

[
  {
    "Substance smiles": "O[C@H]1CC[C@H](Nc2nccc(-n3nnc4ccccc43)n2)CC1",
    "Target or system": "Mitogen-activated protein kinase 11 (Homo sapiens)",
    "inhibition": "< 50%"
  },
  {
    "Substance smiles": "O=C([C@H]1CC[C@H](Nc2nccc(-n3nnc4ccccc43)n2)CC1)N1CCOCC1",
    "Target or system": "Mitogen-activated protein kinase 11 (Homo sapiens)",
    "inhibition": "< 50%"
  },
  {
    "Substance smiles": "N[C@H]1CC[C@H](Nc2nccc(-n3nnc4ccccc43)n2)CC1",
    "Target or system": "Mitogen-activated protein kinase 11 (Homo sapiens)",
    "inhibition": "< 50%"
  }
]

Input line: What value of inhibition has been reported for the following molecule? "O[C@H]1CC[C@H](Nc2nccc(-n3ncc4ccccc43)n2)CC1"
Output line: < 50%

Input line: Now the same for "CS(=O)(=O)CCCOc1cccc2c1ccn2-c1ccnc(N[C@H]2CC[C@H](C(=O)N3CCC(O)CC3)CC2)n1"
Output line: > 85%

Input line: Now this one: "O[C@H]1CC[C@H](Nc2nccc(-c3n[nH]c4ccccc34)n2)CC1"
Output line: < 50%

Input line: Record: "O[C@H]1CC[C@H](Nc2nccc(-n3ccc4ccccc43)n2)CC1"
Output line: < 50%

---

Molecular target: Mitogen-activated protein kinase 14 (Homo sapiens, UniProt Q16539)
Sequence (Q16539 whole entry): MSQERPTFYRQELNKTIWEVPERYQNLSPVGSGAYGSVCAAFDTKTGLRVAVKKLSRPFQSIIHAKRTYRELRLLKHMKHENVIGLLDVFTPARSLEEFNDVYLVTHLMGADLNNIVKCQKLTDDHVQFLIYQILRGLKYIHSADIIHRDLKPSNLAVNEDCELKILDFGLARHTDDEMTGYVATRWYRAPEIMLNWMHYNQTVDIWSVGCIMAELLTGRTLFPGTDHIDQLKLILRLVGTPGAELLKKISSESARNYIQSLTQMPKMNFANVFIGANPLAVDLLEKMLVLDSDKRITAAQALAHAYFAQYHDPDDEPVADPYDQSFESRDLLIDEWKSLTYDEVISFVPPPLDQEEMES
Experiment: Binding affinity to p38-alpha (unknown origin)
Measure name: pKd
pKd (log units): -log10 of the concentration in mol/L.

Input line: Kindly state the measured pKd obtained for "CS(=O)(=O)CCCOc1cccc2c1ccn2-c1ccnc(N[C@H]2CC[C@H](C(=O)N3CCC(O)CC3)CC2)n1" with Mitogen-activated protein kinase 14 (Homo sapiens, UniProt Q16539).
Output line: 5.06

---

Biological target: TGF-beta receptor type-1 (Homo sapiens) (UniProt P36897)
Sequence (P36897 whole entry): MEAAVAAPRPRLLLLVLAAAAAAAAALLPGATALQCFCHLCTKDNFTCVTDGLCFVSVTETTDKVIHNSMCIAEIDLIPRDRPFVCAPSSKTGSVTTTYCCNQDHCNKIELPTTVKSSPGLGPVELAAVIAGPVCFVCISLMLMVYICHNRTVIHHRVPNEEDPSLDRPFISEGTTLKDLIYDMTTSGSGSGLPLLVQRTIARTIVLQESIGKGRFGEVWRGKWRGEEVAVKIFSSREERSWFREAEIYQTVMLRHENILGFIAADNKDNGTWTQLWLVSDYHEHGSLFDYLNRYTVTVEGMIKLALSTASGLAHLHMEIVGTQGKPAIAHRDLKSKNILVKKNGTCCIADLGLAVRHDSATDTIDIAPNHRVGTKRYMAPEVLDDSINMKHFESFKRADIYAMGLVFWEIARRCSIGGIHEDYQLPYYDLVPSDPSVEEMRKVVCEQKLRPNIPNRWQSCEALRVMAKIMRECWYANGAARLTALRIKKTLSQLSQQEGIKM
Assay: Competitive binding affinity to TGFBR1 (unknown origin) at 10 uM in presence of ATP relative to control
Measure name: inhibition

Input line: Fill in the blank: the reported inhibition of "O[C@H]1CC[C@H](Nc2nccc(-n3ccc4ccccc43)n2)CC1" is ____.
Output line: < 50%

Input line: Thanks! And "O[C@H]1CC[C@H](Nc2nccc(-c3n[nH]c4ccccc34)n2)CC1" ?
Output line: < 50%

Input line: And the next one, "O[C@H]1CC[C@H](Nc2nccc(-n3nnc4ccccc43)n2)CC1" ?
Output line: < 50%

Input line: Entry "O[C@H]1CC[C@H](Nc2nccc(-n3ncc4ccccc43)n2)CC1" please
Output line: < 50%
